# Test system: DIV30
# experimental_details: qHTS profiling for inhibitors of Plasmodium falciparum proliferation (AID 504749); note: nearly all actives have a fitted effect of over 60% in size
# cond: P. falciparum in erythrocytes, SYBR Green DNA, 72 h; series mostly up to 12.8 µM
Inconclusive results are not listed. Activity calls are given as the source filed them. Calls come from the whole dose curve; as a rule, active = well fitted inhibition curve with a large enough effect; inconclusive = small, poorly fitted or top-dose-only effect; inactive = flat fitted curve, though single readings scatter.
# valid calls are active, inactive; nothing else

What did this assay record as the result for C[C@@H]1Cc2ccccc2N1NC(=O)c1ccc(Cl)c(S(N)=O)c1 (stereo partly drawn) ?
inactive

What did this assay record as the result for CCCCC[C@H](O)/C=C\[C@H]1[C@H](C/C=C\CCCC(=O)O)[C@@H](O)C[C@H]1O (tested in a mixture with another compound) ?
inactive

What did this assay record as the result for CCC1OC(=O)C(C)[C@@H](O[C@H]2C[C@@](C)(OC)C(O)C(C)O2)C(C)[C@@H](O[C@@H]2OC(C)CC(N(C)C)C2O)[C@@](C)(O)CC(C)C(=O)[C@@H](C)C(O)[C@]1(C)O (stereo partly drawn) ?
inactive

What did this assay record as the result for CN(C)CCCOC1C(C(O)CO)OC2OC(C)(C)O[C@@H]21 (stereo partly drawn) ?
inactive

What did this assay record as the result for OCC1O[C@H](OC2C(CO)O[C@@](O)(CO)C2O)C(O)C(O)C1O (stereo partly drawn) ?
inactive

What did this assay record as the result for C=CC1=C(C(=O)O)N2C(=O)[C@@H](NC(=O)/C(=N\OCC(=O)O)c3csc(N)n3)[C@@H]2SC1 ?
inactive

What did this assay record as the result for CC[N+](CC)(CC)CC[C@](O)(c1ccccc1)C1CCCCC1 ?
inactive
